Cited source: the supplement of paper PMC5844555

What 3' UTR reporter interaction score was measured for each of the following?
system: PHF6; experiment: 3' UTR reporter interaction score (median-centred robust z-score of log2 firefly/Renilla activity); higher = less repression of the 3' UTR reporter; details: HEK293T; 48 h

Example results:
* CAAAGUGCUUACAGUGCAGGUAGU | -0.0772
* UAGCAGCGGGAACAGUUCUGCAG | 0.822
* AUCGUGCAUCCCUUUAGAGUGUU | 1.97
* UGCUUCCUUUCAGAGGGU | -0.232

Look up 3' UTR reporter interaction score for the entries below, preserving their order.
1. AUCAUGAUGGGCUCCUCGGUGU
2. UAGGUAGUUUCCUGUUGUUGG
3. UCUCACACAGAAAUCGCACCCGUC
4. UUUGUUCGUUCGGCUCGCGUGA
5. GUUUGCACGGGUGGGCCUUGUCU
6. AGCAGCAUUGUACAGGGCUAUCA
7. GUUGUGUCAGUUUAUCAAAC
8. UGAGAUGAAGCACUGUAGCUCA

Result ::
1: 0.0291; 2: -0.855; 3: 0.199; 4: 1.7; 5: 0.29; 6: 1.3; 7: -1.91; 8: -0.896

Look up 3' UTR reporter interaction score for the entries below, preserving their order.
1. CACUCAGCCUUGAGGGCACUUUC
2. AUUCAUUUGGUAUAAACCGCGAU
3. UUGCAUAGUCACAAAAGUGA

Result ::
-4
0.306
-0.0278

----------
system: MYC; test: 3' UTR reporter interaction score (median-centred robust z-score of log2 firefly/Renilla activity); higher = less repression of the 3' UTR reporter; conditions: HEK293T; 48 h
measurementName: 3' UTR reporter interaction score
Numbers only.

- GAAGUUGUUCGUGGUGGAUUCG: 0.185

Look up 3' UTR reporter interaction score for the entries below, preserving their order.
1. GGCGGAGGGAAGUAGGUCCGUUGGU
2. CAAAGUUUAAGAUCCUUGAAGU
3. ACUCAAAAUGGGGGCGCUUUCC

Result ::
-0.0304
-0.333
0.445

Look up 3' UTR reporter interaction score for the entries below, preserving their order.
1. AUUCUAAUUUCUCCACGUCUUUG
2. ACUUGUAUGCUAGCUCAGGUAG
3. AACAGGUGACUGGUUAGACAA
4. UGGGCGUAUCUGUAUGCUA
5. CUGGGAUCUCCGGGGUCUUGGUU
6. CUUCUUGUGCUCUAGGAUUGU

Result ::
1: 0.0131; 2: 0.231; 3: -1.37; 4: -0.549; 5: 0.773; 6: 0.759

Look up 3' UTR reporter interaction score for the entries below, preserving their order.
1. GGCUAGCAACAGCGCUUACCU
2. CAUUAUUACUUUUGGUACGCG

Result ::
[-0.989, -0.4]

----------
system: TP53; assay: 3' UTR reporter interaction score (median-centred robust z-score of log2 firefly/Renilla activity); higher = less repression of the 3' UTR reporter; conditions: HEK293T; 48 h
Binary classification by 3' UTR reporter interaction score, with 0.2 as an inclusive lower bound for fulfilled; all other cases are not fulfilled.

Please review the entries below; each comes with its answer.
* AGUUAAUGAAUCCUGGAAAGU | not fulfilled
* AGGCUGCGGAAUUCAGGAC | not fulfilled
* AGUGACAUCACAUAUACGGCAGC | not fulfilled
* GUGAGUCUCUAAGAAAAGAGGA | fulfilled
* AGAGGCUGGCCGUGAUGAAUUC | not fulfilled

Query :: Does 3' UTR reporter interaction score meet or surpass 0.2 for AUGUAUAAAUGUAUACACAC ?
Result :: fulfilled

Query :: Does 3' UTR reporter interaction score meet or surpass 0.2 for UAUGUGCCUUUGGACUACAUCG ?
Result :: not fulfilled

Query :: Does 3' UTR reporter interaction score meet or surpass 0.2 for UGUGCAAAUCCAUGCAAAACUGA ?
Result :: not fulfilled

Query :: Does 3' UTR reporter interaction score meet or surpass 0.2 for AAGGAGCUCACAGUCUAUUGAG ?
Result :: not fulfilled

Query :: Does 3' UTR reporter interaction score meet or surpass 0.2 for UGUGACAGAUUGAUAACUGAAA ?
Result :: fulfilled

Query :: Does 3' UTR reporter interaction score meet or surpass 0.2 for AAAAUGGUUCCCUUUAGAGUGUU ?
Result :: not fulfilled
